Molecular target: EGFR(L858R,T790M) (Homo sapiens, UniProt P00533, L858R/T790M)
Construct: purchased Eurofins DiscoverX KINOMEscan (scanTK)
Sequence (P00533 25-1210 T790M/L858R): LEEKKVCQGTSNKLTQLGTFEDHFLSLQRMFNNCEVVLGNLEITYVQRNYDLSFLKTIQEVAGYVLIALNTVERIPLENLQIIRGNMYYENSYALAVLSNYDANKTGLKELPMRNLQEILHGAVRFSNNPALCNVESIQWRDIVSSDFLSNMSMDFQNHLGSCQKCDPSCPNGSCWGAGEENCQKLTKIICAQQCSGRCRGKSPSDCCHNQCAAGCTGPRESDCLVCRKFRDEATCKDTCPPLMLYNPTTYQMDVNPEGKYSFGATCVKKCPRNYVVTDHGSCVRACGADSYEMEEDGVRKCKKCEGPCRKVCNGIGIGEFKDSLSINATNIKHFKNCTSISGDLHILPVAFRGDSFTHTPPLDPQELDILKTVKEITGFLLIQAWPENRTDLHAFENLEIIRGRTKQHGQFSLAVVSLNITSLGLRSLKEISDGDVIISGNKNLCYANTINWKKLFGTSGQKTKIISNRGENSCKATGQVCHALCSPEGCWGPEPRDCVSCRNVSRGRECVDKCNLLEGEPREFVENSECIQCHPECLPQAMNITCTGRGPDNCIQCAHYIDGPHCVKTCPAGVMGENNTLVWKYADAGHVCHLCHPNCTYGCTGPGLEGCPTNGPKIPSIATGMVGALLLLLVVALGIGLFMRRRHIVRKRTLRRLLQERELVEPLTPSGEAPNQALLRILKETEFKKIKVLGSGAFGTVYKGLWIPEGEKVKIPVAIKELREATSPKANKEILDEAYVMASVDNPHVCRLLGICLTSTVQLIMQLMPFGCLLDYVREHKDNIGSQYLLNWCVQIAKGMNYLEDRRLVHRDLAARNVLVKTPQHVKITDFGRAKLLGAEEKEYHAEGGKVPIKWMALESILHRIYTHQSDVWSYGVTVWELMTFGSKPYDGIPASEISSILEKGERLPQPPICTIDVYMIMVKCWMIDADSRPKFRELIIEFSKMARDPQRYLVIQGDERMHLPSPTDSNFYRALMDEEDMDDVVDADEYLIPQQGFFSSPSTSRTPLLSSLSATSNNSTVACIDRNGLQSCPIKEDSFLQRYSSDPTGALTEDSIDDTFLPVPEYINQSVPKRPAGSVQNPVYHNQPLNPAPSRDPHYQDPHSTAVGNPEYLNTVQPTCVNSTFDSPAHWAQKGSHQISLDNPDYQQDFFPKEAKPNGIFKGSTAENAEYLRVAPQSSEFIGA
Test: KINOMEscan ScanTK
Assay type: binding
Conditions: @1000nM
Reported Metric: difference in % of control versus compound Ib at 1 µM (%)
Answer with a number only, understood to be in %.

Q: I have this compound here, CCOC(=O)c1cnc(S(C)(=O)=O)nc1N1CCC[C@@H](n2nc(-c3ccc(Oc4ccccc4)cc3)c3c(N)ncnc32)C1 , and I need its recorded difference in % of control versus compound Ib at 1 µM.
Ans: 77

Q: Can you share its difference in % of control versus compound Ib at 1 µM? I mean this compound: CNC(=O)c1cnc(S(C)(=O)=O)nc1N1CCCC(n2nc(-c3ccc(Oc4ccccc4)cc3)c3c(N)ncnc32)C1 (stereo not shown)
Ans: 49

Q: Returns the measured difference in % of control versus compound Ib at 1 µM for the input compound. Input: Cc1cnc(S(C)(=O)=O)nc1N1CCCC(n2nc(-c3ccc(Oc4ccccc4)cc3)c3c(N)ncnc32)C1 (stereo not shown)
Ans: 81

Q: difference in % of control versus compound Ib at 1 µM for COC(=O)c1cnc(S(C)(=O)=O)nc1N1CCCC(n2nc(-c3ccc(Oc4ccccc4)cc3)c3c(N)ncnc32)C1 (stereo not shown) ?
Ans: 69

Recorded values, source paper PMC11345841.
